Sequence of the target: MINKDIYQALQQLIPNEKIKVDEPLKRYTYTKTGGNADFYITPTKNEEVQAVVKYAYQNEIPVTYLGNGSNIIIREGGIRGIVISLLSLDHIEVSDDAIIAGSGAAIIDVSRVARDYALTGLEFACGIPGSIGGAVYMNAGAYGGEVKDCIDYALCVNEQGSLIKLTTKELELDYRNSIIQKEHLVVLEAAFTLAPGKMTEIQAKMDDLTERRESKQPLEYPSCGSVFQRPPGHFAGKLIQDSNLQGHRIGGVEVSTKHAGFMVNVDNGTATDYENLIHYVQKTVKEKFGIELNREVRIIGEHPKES
measurement-type: Ki (µM)
Kindly provide the numeric value in µM only, without the unit symbol.

INPUT: Name the recorded Ki for CC(C)(C)c1cc(C(c2ccccc2)c2ccccc2)c(NC(=O)c2cccc(C(=O)O)c2)c(C(c2ccccc2)c2ccccc2)c1 .
OUTPUT: 2.52

###

tested on: Staphylococcus aureus; assay: Antibacterial activity against methicillin-resistant Staphylococcus aureus NRS 192 assessed as reduction in bacterial growth measured after 18 to 24 hrs by broth microdilution method; assay type: functional; conditions: time 18-24 hrs
Provide the recorded MIC for the entries that follow.
Kindly provide the numeric value in µg/mL only, without the unit symbol.

INPUT: Name the recorded MIC for O=C(O)c1cccc(C(=O)Nc2c(C(c3ccccc3)c3ccccc3)cc(Cl)cc2C(c2ccccc2)c2ccccc2)c1 .
OUTPUT: 4

INPUT: Record: CC(C)(C)c1cc(C(c2ccccc2)c2ccccc2)c(NC(=O)c2cccc(C(=O)O)c2)c(C(c2ccccc2)c2ccccc2)c1
OUTPUT: 4

INPUT: Record: C[C@H]1COc2c(N3CCN(C)CC3)c(F)cc3c(=O)c(C(=O)O)cn1c23 [LEVOFLOXACIN ANHYDROUS]
OUTPUT: 8

INPUT: Record: O=C(O)c1cccc(C(=O)Nc2c(C(c3ccc(F)cc3)c3ccc(F)cc3)cc(Cl)cc2C(c2ccc(F)cc2)c2ccc(F)cc2)c1
OUTPUT: 2

INPUT: Record: CC(C)(C)c1cc(C(c2ccc(F)cc2)c2ccc(F)cc2)c(NC(=O)c2cccc(C(=O)O)c2)c(C(c2ccc(F)cc2)c2ccc(F)cc2)c1
OUTPUT: 2

INPUT: Record: CN(C)c1ccc(O)c2c1C[C@H]1C[C@H]3[C@H](N(C)C)C(O)=C(C(N)=O)C(=O)[C@@]3(O)C(O)=C1C2=O [MINOCYCLINE]
OUTPUT: 32

###

tested on: Bacillus subtilis; experiment: Antibacterial activity against Bacillus subtilis IITKSM1 assessed as reduction in bacterial growth measured after 18 to 24 hrs by broth microdilution method; type: functional; settings: time 18-24 hrs
Provide the recorded MIC for the entries that follow.

INPUT: Find the measured MIC: item CC(c1ccccc1)c1cc(C(C)(C)C)cc(C(C)c2ccccc2)c1NC(=O)c1cccc(C(=O)O)c1 (stereo not drawn) , target or system Bacillus subtilis.
OUTPUT: > 64 µg/mL

INPUT: Record: O=C(O)c1cccc(C(=O)Nc2c(C(c3ccccc3)c3ccccc3)cc(OC(F)(F)F)cc2C(c2ccccc2)c2ccccc2)c1
OUTPUT: 2 µg/mL

INPUT: Record: O=C(O)c1cccc(C(=O)Nc2c(C(c3ccccc3)c3ccccc3)cc(OC(F)F)cc2C(c2ccccc2)c2ccccc2)c1
OUTPUT: 1 µg/mL

INPUT: Record: O=C(O)c1cccc(C(=O)Nc2c(C(c3ccc(F)cc3)c3ccc(F)cc3)cc(Cl)cc2C(c2ccc(F)cc2)c2ccc(F)cc2)c1
OUTPUT: 1 µg/mL

INPUT: Record: CCCCc1cc(C(c2ccccc2)c2ccccc2)c(NC(=O)c2cccc(C(=O)O)c2)c(C(c2ccccc2)c2ccccc2)c1
OUTPUT: 8 µg/mL

INPUT: Record: COc1cc(C(c2ccccc2)c2ccccc2)c(NC(=O)c2cccc(C(=O)O)c2)c(C(c2ccccc2)c2ccccc2)c1
OUTPUT: 32 µg/mL

INPUT: Record: CC(c1ccccc1)c1cc(Cl)cc(C(C)c2ccccc2)c1NC(=O)c1cccc(C(=O)O)c1 (stereo not drawn)
OUTPUT: > 64 µg/mL

INPUT: Record: O=C(O)c1cccc(C(=O)Nc2c(C(c3ccccc3)c3ccccc3)cc(Br)cc2C(c2ccccc2)c2ccccc2)c1
OUTPUT: 2 µg/mL
